Tested on: HEK-293T
PROTOCOL_DESCRIPTION: Multiplex assay against HEK293T;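 as to Population Tubulin-Different-Phenotype (%): share of the cells with healthy nuclei that show this phenotype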
Type: toxicity, cell-based
CONDITION_LABEL: human, 12 h, 10 µM, compound concentration 10 uM, replicate 1
QUANTITY_MEASURED: Population Tubulin-Different-Phenotype (%)

MOLECULE: CCCn1c(=O)c2[nH]c(-c3cnn(Cc4cccc(C(F)(F)F)c4)c3)nc2n(CC)c1=O [GS 6201]
NUMERIC_READOUT: 83

MOLECULE: O=C(Nc1ccc(-n2nc(-c3cccnc3)cc2C(F)(F)F)cn1)c1ccc(-c2ccccc2)c(F)c1 [BI 2049]
NUMERIC_READOUT: 65

MOLECULE: CCCS(=O)(=O)Nc1ccc(F)c(C(=O)c2c[nH]c3ncc(Cl)cc23)c1F [PLX-4720]
NUMERIC_READOUT: 1

MOLECULE: Cn1nc(C(F)(F)F)cc1-c1cnc(N2CCc3cc(S(=O)(=O)Nc4c(F)cc(Cl)cc4F)cc(N4CCCC4=O)c32)nc1 [TP-020]
NUMERIC_READOUT: 3

MOLECULE: O=C1NC(=O)C(c2cnc3ccccn23)=C1c1cn2c3c(cc(F)cc13)CN(C(=O)N1CCCCC1)CC2 [LY-2090314]
NUMERIC_READOUT: 96

MOLECULE: O=C(Nc1ccc(-c2ccnc(Nc3ccc(N4CCOCC4)cc3)n2)cc1)[C@@H]1CCCN1
NUMERIC_READOUT: 100

MOLECULE: O=C1N/C(=N/c2ccccc2F)S/C1=C\c1ccc(C(=O)O)cc1
NUMERIC_READOUT: 33

MOLECULE: CCCS(=O)(=O)c1nc(NC2CC2)cc(-c2ccc3c(ccn3C3CC(C)(C)NC(C)(C)C3)c2)n1
NUMERIC_READOUT: 16

====

System: HEK-293T
PROTOCOL_DESCRIPTION: Multiplex assay against HEK293T
Format: toxicity, cell-based
CONDITION_LABEL: human, 12 h, 1 µM, compound concentration 1 uM, replicate 2
QUANTITY_MEASURED: Population Mitotic Cells (%)

COMPOUND: CCOC(=O)c1c(C)[nH]c2ccc3c(c12)CN1CCc2cc(OC)ccc2C1O3 (stereo not given)
TARGET_UNDER_TEST: HEK-293T
QUANTITY_MEASURED: Population Mitotic Cells (%)
RESULT: 63%

COMPOUND: CCCn1c(=O)c2[nH]c(-c3cnn(Cc4cccc(C(F)(F)F)c4)c3)nc2n(CC)c1=O [GS 6201]
TARGET_UNDER_TEST: HEK-293T
QUANTITY_MEASURED: Population Mitotic Cells (%)
RESULT: 90%

COMPOUND: CN(C)C(=O)C(CCN1CCC(O)(c2ccc(Cl)cc2)CC1)(c1ccccc1)c1ccccc1.Cl [LOPERAMIDE HYDROCHLORIDE]
TARGET_UNDER_TEST: HEK-293T
QUANTITY_MEASURED: Population Mitotic Cells (%)
RESULT: 43%

COMPOUND: COc1cc2ncnc(Nc3ccc(F)c(Cl)c3)c2cc1NC(=O)/C=C/CN1CCCCC1 [DACOMITINIB ANHYDROUS]
TARGET_UNDER_TEST: HEK-293T
QUANTITY_MEASURED: Population Mitotic Cells (%)
RESULT: 86%

COMPOUND: COc1cc(N2CCN(C)CC2)ccc1Nc1ncc2c(n1)N(C)c1ccccc1C(=O)N2C
TARGET_UNDER_TEST: HEK-293T
QUANTITY_MEASURED: Population Mitotic Cells (%)
RESULT: 82%

meta.source: ChEMBL document CHEMBL4689842
